Data provenance is patent US20150147318A1.

Target: T1, recombinant canine Nerve Growth Factor (Canis lupus familiaris NGF) (canine (Canis lupus familiaris), UniProt Q29074 110-229 (pig entry), limits assumed)
T1 construct: also called canine NGF; Dog NGF
T1 chain: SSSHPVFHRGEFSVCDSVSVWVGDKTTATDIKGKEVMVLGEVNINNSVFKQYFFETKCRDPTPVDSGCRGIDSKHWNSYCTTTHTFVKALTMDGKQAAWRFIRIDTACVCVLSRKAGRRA
Test: SPR trkA inhibition: mAb pre-incubated with NGF, binding of NGF to trkA measured in RU
readoutType: Ki (nM)
Please respond with the number in nM and leave the unit unwritten.

binder	measuredValue
SSM66 (CAN-SSM66-VH, CAN-SSME3M-VL) (antibody, V domains shown) VH: EVQLVESGGDLARPGGSLKLSCVVSGFSLIEYDINWVRQAPGKGLQWVTMIWGTGTTDYNSALKSRFTVSRDNAMNTVYLQMNSLRVEDTAVYYCARGGYWYATSYYFDYWGQGTLVTVSS VL: DIVMTQTPLSLSVSPGETASISCRASQSISNNLNWFRQKPGQSPQRLIYYISSFHSGVPDRFSGSGSGTDFTLRISRVEADDTGVYYCQQSHTLPYTFGAGTKLEIK	4.5
SSM58 (CAN-SSM58-VH, CAN-SSME3M-VL) (antibody, V domains shown) VH: EVQLVESGGDLARPGGSLKLSCVVSGFSLIEYDINWVRQAPGKGLQWVTMIWGDGTTDYNSALKSRFTVSRDNAMNTVYLQMNSLRVEDTAVYYCARGGYWYATSYYFDYWGQGTLVTVSS VL: DIVMTQTPLSLSVSPGETASISCRASQSISNNLNWFRQKPGQSPQRLIYYISSFHSGVPDRFSGSGSGTDFTLRISRVEADDTGVYYCQQSHTLPYTFGAGTKLEIK	4.2
SSM57 (CAN-SSM57-VH, CAN-SSME3M-VL) (antibody, V domains shown, also called PF 06442590; PF-06442591) VH: EVQLVESGGDLARPGGSLKLSCVVSGFSLIQYDINWVRQAPGKGLQWVTMIWGDGTTDYNSALKSRFTVSRDNAMNTVYLQMNSLRVEDTAVYYCARGGYWYATSYYFDYWGQGTLVTVSS VL: DIVMTQTPLSLSVSPGETASISCRASQSISNNLNWFRQKPGQSPQRLIYYISSFHSGVPDRFSGSGSGTDFTLRISRVEADDTGVYYCQQSHTLPYTFGAGTKLEIK	4.2

Request: Can you share its Ki? I mean this binder: murine anti-NGF monoclonal antibody RN911 (antibody, V domains shown, Mouse mAb; also called MU-RN911) VH: QVQLKESGPGLVAPSQSLSITCTVSGFSLIGYDINWVRQPPGKGLEWLGMIWGDGTTDYNSALKSRLSISKDNSKSQVFLKMNSLRTDDTATYSCARGGYYYGTSYYFDYWGQGTTLTVSS VL: DIQMTQTTSSLSASLGDRVTISCRASQDISNHLNWYQQKPDGTVKLLIYYISRFHSGVPSRFSGSGSGTDYSLTISNLEQEDIATYFCQQSKTLPYTFGGGTKLEIKR
Result: 4.2
